Biological target: full-length beta-Catenin (Uniprot ID P35222) (Homo sapiens)
Construct: 10 nM full-length beta-Catenin (Uniprot ID P35222)
Sequence (P35222 1-781): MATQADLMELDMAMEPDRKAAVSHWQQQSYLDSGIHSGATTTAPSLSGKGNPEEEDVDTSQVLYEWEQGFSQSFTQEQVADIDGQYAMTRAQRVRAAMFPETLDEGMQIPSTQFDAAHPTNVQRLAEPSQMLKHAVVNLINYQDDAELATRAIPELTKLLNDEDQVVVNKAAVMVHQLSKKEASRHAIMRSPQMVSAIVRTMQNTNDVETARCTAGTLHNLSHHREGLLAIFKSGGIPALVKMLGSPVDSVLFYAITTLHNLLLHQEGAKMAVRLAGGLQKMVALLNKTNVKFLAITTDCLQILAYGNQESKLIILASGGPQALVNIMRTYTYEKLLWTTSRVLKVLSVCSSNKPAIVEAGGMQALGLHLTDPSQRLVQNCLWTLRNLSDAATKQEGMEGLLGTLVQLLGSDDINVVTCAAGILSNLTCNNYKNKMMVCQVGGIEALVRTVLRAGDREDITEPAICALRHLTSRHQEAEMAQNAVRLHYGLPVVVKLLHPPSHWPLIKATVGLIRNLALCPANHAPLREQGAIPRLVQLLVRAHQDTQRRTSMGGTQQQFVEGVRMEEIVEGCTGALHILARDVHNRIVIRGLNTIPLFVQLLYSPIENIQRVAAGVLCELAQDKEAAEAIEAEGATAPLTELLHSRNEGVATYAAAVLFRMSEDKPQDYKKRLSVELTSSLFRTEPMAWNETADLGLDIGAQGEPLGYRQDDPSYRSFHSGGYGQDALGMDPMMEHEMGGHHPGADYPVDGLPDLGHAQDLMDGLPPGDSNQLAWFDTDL
Assay: Fluorescence polarization IC50 (beta-catenin / 5FAM-TCF4 10-53 competition)
Assay type: binding
Details: fluorescence polarization; read-out: beta-Catenin FP IC50
EXPERIMENTAL_READOUT: pIC50
When answering, recall that pIC50 equals minus log10 of the concentration in mol/L, and write that number alone.

In plain terms, CC(=O)N1CCC[C@]12CC=CCCCC1(CCCC=CCCCCCC[C@@](C)(C(=O)N[C@@H](Cc3cccs3)C(=O)N[C@@H](Cc3csc4ccccc34)C(=O)N[C@H](CO)[C@@H](C)O)NC(=O)[C@H](CCO)NC(=O)[C@H](Cc3ccccc3)NC(=O)[C@H](C)NC(=O)[C@H](C)NC(=O)[C@H](CC(=O)O)NC(=O)[C@H](CC(=O)O)NC1=O)NC(=O)[C@H](CC(C)(C)C)NC(=O)[C@H](CC(=O)O)NC2=O (stereo partly drawn) has a documented pIC50 of 7.47

Lab note: measured pIC50 of CC(=O)N1CCC[C@]12CC=CCCCC1(CCCC=CCCCOC(=O)N3CC[C@@](C(=O)N[C@@H](Cc4ccsc4)C(=O)N[C@@H](Cc4csc5ccccc45)C(=O)N[C@@H](CCO)C(N)=O)(C3)NC(=O)[C@H](CC(C)C)NC(=O)[C@H](Cc3ccccc3)NC(=O)[C@H](C)NC(=O)[C@H](C)NC(=O)[C@H](CC(=O)O)NC(=O)[C@H](CC(=O)O)NC1=O)NC(=O)[C@H](CC1CCCCC1)NC(=O)[C@H](CC(=O)O)NC2=O (stereo partly drawn) was 7.96

The recorded pIC50 for CC(=O)N1CCC[C@]12CC=CCCCC1(CCCC=CCCCOC(=O)N3CC[C@@](C(=O)N[C@@H](Cc4ccccc4)C(=O)N[C@@H](Cc4csc5ccccc45)C(=O)N[C@@H](CCC(N)=O)C(N)=O)(C3)NC(=O)[C@H](CC(C)C)NC(=O)[C@H](Cc3ccccc3)NC(=O)[C@H](C)NC(=O)[C@H](CCCCNC(C)C)NC(=O)[C@H]([C@@H](C)O)NC(=O)[C@H](CC(=O)O)NC1=O)NC(=O)[C@H](C)NC(=O)[C@H](CC(N)=O)NC2=O (stereo partly drawn) is 5.54
